Give TGI for every item shown.
system: SNB-75 CNS; assay: NCI tumour cell line growth inhibition, 48 h
Please respond with the number in µM and leave the unit unwritten.

input: For the compound shown here, "Cn1cncc1[C@@](N)(c1ccc(Cl)cc1)c1ccc2c(c1)c(-c1cccc(Cl)c1)cc(=O)n2C" , give the reported TGI.
output: 18.9

input: Same question for "COc1ccc(CCN2C(=O)C=CC2=O)cc1OC" please.
output: 36.1

input: Likewise for COC1=C2CC(C)CC(OC)[C@@H](OC(=O)CCN)[C@H](C)/C=C(\C)C(OC(N)=O)C(OC)/C=C\C=C(/C)C(=O)NC(=CC1=O)C2=O (stereo partly specified) ?
output: 35.1

input: Likewise for "COc1cc2nc3sc(C(=O)Nc4ccc(C(=O)OC(C)C)cc4)c(C(=O)Nc4ccc(Cl)cc4C)n3c(=O)c2cc1OC" ?
output: 27.8

input: What about CC(=O)O[C@H]1C(=O)[C@@]2(C)[C@H]([C@H](OC(=O)c3ccccc3)[C@]3(O)C[C@H](OC(=O)[C@H](OC(=O)OCCC(O)CO)[C@@H](NC(=O)c4ccccc4)c4ccccc4)C(C)=C1C3(C)C)[C@]1(OC(C)=O)CO[C@@H]1C[C@@H]2O (stereo partly specified) ?
output: 1.28

input: Then what about the compound "O=[N+]([O-])c1ccc(Br)c([N+](=O)[O-])c1" ?
output: 4.36

input: Let us now turn to "Cc1ccc(CC(=O)Nc2ccc(NC(=O)/C=C/NC(=O)/C=C/c3ccc(-c4ccccc4)cc3)cc2C(=O)c2ccccc2)cc1"
output: 6.59

input: What do we get for "C=CCc1cc(-c2cc(CC=C)c(O)c(CN(CCCl)CCCl)c2)cc(CN(CCCl)CCCl)c1O" ?
output: 58.6

input: Next compound: "C/C=C/c1c(O)c(=O)c2c(OC)cc(OC)c3c4c(OC)cc(OC)c5c(=O)c(O)c(/C=C/C)c(c1c23)c54"
output: 28.7

input: Similarly, "O=c1cc(-c2ccccc2)[nH]c2cc(F)c(F)cc12" ?
output: 90

====

system: MOLT-4 leukemia; test: NCI tumour cell line growth inhibition, 48 h
measurementName: TGI

input: What value of TGI has been recorded for this entry: "Oc1ccc(-c2nnc3sc(-c4ccc(F)c(Oc5ccccc5)c4)nn23)cc1"
output: > 100 µM

input: Now the compound "COC(=O)CCCN(C)c1n[nH]c(N)n1"
output: > 100 µM

input: Now the same for "N#C/C(=C\c1ccc(-c2ccc(Cl)cc2)o1)C(=O)Nc1ncc(Cc2ccc(Cl)cc2)s1"
output: > 100 µM

====

Provide the recorded TGI for the entries that follow.
tested on: A498 renal; assay: NCI tumour cell line growth inhibition, 48 h

input: Could you share which TGI value was measured for "N#Cc1ccc(Oc2nc3ccccc3nc2-c2ccccc2)cc1" ?
output: > 100 µM

input: Consider next the molecule "Cc1cc(O)cc2oc(=O)c3c(O)cc(O)cc3c12" in the same way.
output: > 100 µM

input: Okay, and "O=c1c2cccc(Cl)c2sc2c(NCCCNCCO)nc3ccccc3c12" ?
output: 19.3 µM

input: Do the same for COCO[C@@H]1C[C@H]2C(O)Nc3ccccc3C(=O)N2C1 (stereo partly specified) please
output: > 100 µM

input: Here is the next molecule: "C#CCOC(=O)c1ccccc1O"
output: > 100 µM

input: Next record, please: "C/C(CC(=O)Nc1ccc(Cl)c(Cl)c1)=N/NC(=O)C[n+]1ccccc1"
output: > 100 µM

input: Same read-out for O=C1CCCCC1CN1CCCC1 (stereo unspecified) ?
output: > 100 µM

input: For COc1cc(C2c3cc4c(cc3OC(NC3CCCCC3)C2C)OCO4)cc(OC)c1OC (stereo unspecified) then?
output: 25 µM

input: Now consider COC(OC)C1OC(CO)C(n2cc(C)c(=O)[nH]c2=O)C1O (stereo unspecified) and answer again.
output: > 100 µM

input: Entry Cc1c(Cl)ccc2c1NC(=O)C2(O)C(C(=O)c1ccccc1)c1ccccc1 (stereo unspecified) please
output: 70.1 µM

input: Also check "Oc1ccc2cc(Br)ccc2c1-c1c(O)ccc2cc(Br)ccc12"
output: 10.3 µM
